These measurements were taken from paper PMC6458156.

Experiment: Non-specific binding of drugs in human liver microsomes (fu,mic), rapid equilibrium dialysis
Assay type: in vitro ADME
Details: unbound drug fraction in the microsomal mixture, HLM 0.1 mg/ml, inhibitor 1 µM, 37 °C, read-out: fu,mic at 0.1 mg/ml
measured.quantity: fraction unbound at 4 h, 1 µM
I only need the number, thanks.

Item under review: "C[C@@H](Oc1cc(-c2cnn(C3CCNCC3)c2)cnc1N)c1c(Cl)ccc(F)c1Cl" . Reported fraction unbound at 4 h, 1 µM?
0.505

Item under review: "Cc1cn(-c2cc(NC(=O)c3ccc(C)c(Nc4nccc(-c5cccnc5)n4)c3)cc(C(F)(F)F)c2)cn1" . Reported fraction unbound at 4 h, 1 µM?
0.195

Item under review: "CC[C@H]1OC(=O)[C@H](C)[C@@H](O[C@H]2C[C@@](C)(OC)[C@@H](O)[C@H](C)O2)[C@H](C)[C@@H](O[C@@H]2O[C@H](C)C[C@H](N(C)C)[C@H]2O)[C@](C)(O)C[C@@H](C)C(=O)[C@H](C)[C@@H](O)[C@]1(C)O" . Reported fraction unbound at 4 h, 1 µM?
0.64

Item under review: "CC[C@H]1OC(=O)[C@H](C)[C@@H](O[C@H]2C[C@@](C)(OC)[C@@H](O)[C@H](C)O2)[C@H](C)[C@@H](O[C@@H]2O[C@H](C)C[C@H](N(C)C)[C@H]2O)[C@](C)(O)C[C@@H](C)CN(C)[C@H](C)[C@@H](O)[C@]1(C)O" . Reported fraction unbound at 4 h, 1 µM?
0.766

Item under review: "CC[C@H]1OC(=O)[C@H](C)C(=O)[C@H](C)[C@@H](O[C@@H]2O[C@H](C)C[C@H](N(C)C)[C@H]2O)[C@](C)(OC)C[C@@H](C)C(=O)[C@H](C)[C@H]2N(CCCCn3cnc(-c4cccnc4)c3)C(=O)O[C@]12C" . Reported fraction unbound at 4 h, 1 µM?
0.962

Item under review: "CC[C@H]1OC(=O)[C@H](C)[C@@H](O[C@H]2C[C@@](C)(OC)[C@@H](O)[C@H](C)O2)[C@H](C)[C@@H](O[C@@H]2O[C@H](C)C[C@H](N(C)C)[C@H]2O)[C@](C)(O)C[C@@H](C)/C(=N\OCOCCOC)[C@H](C)[C@@H](O)[C@]1(C)O" . Reported fraction unbound at 4 h, 1 µM?
0.637

Item under review: "COc1ccc([C@@H]2Sc3ccccc3N(CCN(C)C)C(=O)[C@@H]2OC(C)=O)cc1" . Reported fraction unbound at 4 h, 1 µM?
0.792

Item under review: "CCc1nn(CCCN2CCN(c3cccc(Cl)c3)CC2)c(=O)n1CCOc1ccccc1" . Reported fraction unbound at 4 h, 1 µM?
0.187

---

Test system: human hepatocytes
Experiment: Cytosolic drug accumulation ratio (Kpcyto) and cytosolic bioavailability (Fcyto) in human hepatocytes with chloroquine
Format: in vitro ADME
Details: cellular drug accumulation ratio in the presence of chloroquine (100 µM, 45 min); 0.5 µM drug
Please note: criterion met applies when Kpcyto is 10 or greater, and criterion not met applies otherwise.

Kindly determine if Kpcyto recorded for CCc1nn(CCCN2CCN(c3cccc(Cl)c3)CC2)c(=O)n1CCOc1ccccc1 [Nefazodone] is above or exactly 10.
criterion met

Kindly determine if Kpcyto recorded for C[C@@H](Oc1cc(-c2cnn(C3CCNCC3)c2)cnc1N)c1c(Cl)ccc(F)c1Cl [Crizotinib] is above or exactly 10.
criterion met

Kindly determine if Kpcyto recorded for CC[C@H]1OC(=O)[C@H](C)C(=O)[C@H](C)[C@@H](O[C@@H]2O[C@H](C)C[C@H](N(C)C)[C@H]2O)[C@](C)(OC)C[C@@H](C)C(=O)[C@H](C)[C@H]2N(CCCCn3cnc(-c4cccnc4)c3)C(=O)O[C@]12C [Telithromycin] is above or exactly 10.
criterion not met

Kindly determine if Kpcyto recorded for CC[C@H]1OC(=O)[C@H](C)[C@@H](O[C@H]2C[C@@](C)(OC)[C@@H](O)[C@H](C)O2)[C@H](C)[C@@H](O[C@@H]2O[C@H](C)C[C@H](N(C)C)[C@H]2O)[C@](C)(O)C[C@@H](C)C(=O)[C@H](C)[C@@H](O)[C@]1(C)O [Erythromycin] is above or exactly 10.
criterion not met

Kindly determine if Kpcyto recorded for CC[C@H]1OC(=O)[C@H](C)[C@@H](O[C@H]2C[C@@](C)(OC)[C@@H](O)[C@H](C)O2)[C@H](C)[C@@H](O[C@@H]2O[C@H](C)C[C@H](N(C)C)[C@H]2O)[C@](C)(O)C[C@@H](C)/C(=N\OCOCCOC)[C@H](C)[C@@H](O)[C@]1(C)O [Roxithromycin] is above or exactly 10.
criterion not met

Kindly determine if Kpcyto recorded for Cc1cn(-c2cc(NC(=O)c3ccc(C)c(Nc4nccc(-c5cccnc5)n4)c3)cc(C(F)(F)F)c2)cn1 [Nilotinib] is above or exactly 10.
criterion met

---

Molecular target: CYP3A (Homo sapiens)
Sequence (P08684 2-503): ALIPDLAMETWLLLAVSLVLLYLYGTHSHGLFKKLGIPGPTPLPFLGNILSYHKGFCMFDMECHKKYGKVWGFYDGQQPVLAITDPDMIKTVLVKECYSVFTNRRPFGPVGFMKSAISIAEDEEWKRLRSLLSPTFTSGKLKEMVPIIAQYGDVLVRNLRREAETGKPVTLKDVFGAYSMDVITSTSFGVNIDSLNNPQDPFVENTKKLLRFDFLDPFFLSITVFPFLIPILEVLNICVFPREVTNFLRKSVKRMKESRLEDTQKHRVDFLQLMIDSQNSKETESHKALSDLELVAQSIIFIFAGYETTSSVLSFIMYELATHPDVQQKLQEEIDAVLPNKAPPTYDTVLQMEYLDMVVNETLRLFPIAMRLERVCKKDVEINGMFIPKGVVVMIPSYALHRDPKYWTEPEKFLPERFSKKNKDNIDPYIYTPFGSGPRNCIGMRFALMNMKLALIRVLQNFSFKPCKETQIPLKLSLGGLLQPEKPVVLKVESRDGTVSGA
Experiment: in vitro
Settings: pH 7.4, KI, inactivation constant, HLM 0.5 mg/ml preincubation 0-30 min, midazolam 20 µM, mean ± SD of triplicates
measured.quantity: KI (inactivation) (nM)
The reply should be a number in nM, with the unit left off.

Item under review: "Cc1cn(-c2cc(NC(=O)c3ccc(C)c(Nc4nccc(-c5cccnc5)n4)c3)cc(C(F)(F)F)c2)cn1" . Reported KI (inactivation)?
1290

Item under review: "CC[C@H]1OC(=O)[C@H](C)C(=O)[C@H](C)[C@@H](O[C@@H]2O[C@H](C)C[C@H](N(C)C)[C@H]2O)[C@](C)(OC)C[C@@H](C)C(=O)[C@H](C)[C@H]2N(CCCCn3cnc(-c4cccnc4)c3)C(=O)O[C@]12C" . Reported KI (inactivation)?
1490

Item under review: "C[C@@H](Oc1cc(-c2cnn(C3CCNCC3)c2)cnc1N)c1c(Cl)ccc(F)c1Cl" . Reported KI (inactivation)?
775

Item under review: "CC[C@H]1OC(=O)[C@H](C)[C@@H](O[C@H]2C[C@@](C)(OC)[C@@H](O)[C@H](C)O2)[C@H](C)[C@@H](O[C@@H]2O[C@H](C)C[C@H](N(C)C)[C@H]2O)[C@](C)(O)C[C@@H](C)/C(=N\OCOCCOC)[C@H](C)[C@@H](O)[C@]1(C)O" . Reported KI (inactivation)?
31400

---

Please provide measured Kp at 0.5 µM for the entries that follow.
Assay: Intracellular drug accumulation ratio (Kp) and intracellular bioavailability (Fic) in cryopreserved human hepatocytes
Type: in vitro ADME
Settings: human, cryopreserved human hepatocytes in suspension; cellular drug accumulation ratio; 0.5 µM drug; no chloroquine; geometrical mean ± SD of triplicates
I only need the number, thanks.

Item under review: "C[C@@H](Oc1cc(-c2cnn(C3CCNCC3)c2)cnc1N)c1c(Cl)ccc(F)c1Cl" . Reported Kp at 0.5 µM?
75

Item under review: "CCc1nn(CCCN2CCN(c3cccc(Cl)c3)CC2)c(=O)n1CCOc1ccccc1" . Reported Kp at 0.5 µM?
8.1

Item under review: "CC[C@H]1OC(=O)[C@H](C)[C@@H](O[C@H]2C[C@@](C)(OC)[C@@H](O)[C@H](C)O2)[C@H](C)[C@@H](O[C@@H]2O[C@H](C)C[C@H](N(C)C)[C@H]2O)[C@](C)(O)C[C@@H](C)/C(=N\OCOCCOC)[C@H](C)[C@@H](O)[C@]1(C)O" . Reported Kp at 0.5 µM?
5.4

Item under review: "CC[C@H]1OC(=O)[C@H](C)C(=O)[C@H](C)[C@@H](O[C@@H]2O[C@H](C)C[C@H](N(C)C)[C@H]2O)[C@](C)(OC)C[C@@H](C)C(=O)[C@H](C)[C@H]2N(CCCCn3cnc(-c4cccnc4)c3)C(=O)O[C@]12C" . Reported Kp at 0.5 µM?
6.6

Item under review: "CC[C@H]1OC(=O)[C@H](C)[C@@H](O[C@H]2C[C@@](C)(OC)[C@@H](O)[C@H](C)O2)[C@H](C)[C@@H](O[C@@H]2O[C@H](C)C[C@H](N(C)C)[C@H]2O)[C@](C)(O)C[C@@H](C)C(=O)[C@H](C)[C@@H](O)[C@]1(C)O" . Reported Kp at 0.5 µM?
1.5

---

Biological target: UniProt:P08684
Assay: in vitro
Conditions: microsomes, pH 7.4
Please provide measured Ki at 5 min for the entries that follow.
The reply should be a number in µM, with the unit left off.

Item under review: C[C@@H](Oc1cc(-c2cnn(C3CCNCC3)c2)cnc1N)c1c(Cl)ccc(F)c1Cl [Crizotinib] . Reported Ki at 5 min?
97.4

Item under review: CC[C@H]1OC(=O)[C@H](C)[C@@H](O[C@H]2C[C@@](C)(OC)[C@@H](O)[C@H](C)O2)[C@H](C)[C@@H](O[C@@H]2O[C@H](C)C[C@H](N(C)C)[C@H]2O)[C@](C)(O)C[C@@H](C)/C(=N\OCOCCOC)[C@H](C)[C@@H](O)[C@]1(C)O [Roxithromycin] . Reported Ki at 5 min?
26.2

Item under review: CC[C@H]1OC(=O)[C@H](C)C(=O)[C@H](C)[C@@H](O[C@@H]2O[C@H](C)C[C@H](N(C)C)[C@H]2O)[C@](C)(OC)C[C@@H](C)C(=O)[C@H](C)[C@H]2N(CCCCn3cnc(-c4cccnc4)c3)C(=O)O[C@]12C [Telithromycin] . Reported Ki at 5 min?
6.77

Item under review: CCc1nn(CCCN2CCN(c3cccc(Cl)c3)CC2)c(=O)n1CCOc1ccccc1 [Nefazodone] . Reported Ki at 5 min?
0.242

Item under review: Cc1cn(-c2cc(NC(=O)c3ccc(C)c(Nc4nccc(-c5cccnc5)n4)c3)cc(C(F)(F)F)c2)cn1 [Nilotinib] . Reported Ki at 5 min?
0.128
